Tested on: C2C12 cells
ASSAY_REMARKS: Inhibition of intracellular protein degradation in C2C12 cells
Assay type: cell-based, mouse
CONDITION_SET: Mus musculus; C2C12 cells, 35S-methionine labelled, TCA soluble radioactivity
pIC50: −log10 of the molar value.
Binary call on pIC50: met from 6 upward, not met beneath that.

| CHEMICAL_STRING | ASSIGNED_CATEGORY |
| --- | --- |
| CCCC[C@H]1C(=O)N[C@@]2([C@@H](O)C(C)C)C(=O)O[C@@H]12 | met |
| CCC[C@H]1C(=O)N[C@@]2([C@@H](O)C(C)C)C(=O)O[C@@H]12 | met |
| CO[C@H]1C(=O)N[C@@]2([C@@H](O)C(C)C)C(=O)O[C@@H]12 | not met |
| CC[C@H]1C(=O)N[C@@]2([C@@H](O)C(C)C)C(=O)O[C@@H]12 | met |
| CC(C)C[C@H]1C(=O)N[C@@]2([C@@H](O)C(C)C)C(=O)O[C@@H]12 | met |

Reference for the values: patent US6794516B2
